FYI, the data here is from the RNAGym collection of RNA variant scans (doi:10.7554/elife.80360).

self-cleavage for assorted variants
B1: HDV Ribozyme (parent)
chain: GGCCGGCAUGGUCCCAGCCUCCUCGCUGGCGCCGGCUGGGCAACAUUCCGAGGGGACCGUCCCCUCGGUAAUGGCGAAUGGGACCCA

variants of: B1; experiment: self-cleavage, relative activity (ratio to wild type); higher = more cleavage; co-transcriptional

1) C19G G50U: 0.108
2) G5U C30G: 0
3) C21U U27C: 0.0536

Field request: self-cleavage | item: A42C G74A
0.0652

May I ask what self-cleavage has been recorded for G34A C85U ?
0.163

Fill in the blank: the reported self-cleavage of G6C C66U is ____.
0.256

Fill in: self-cleavage of A51C C85U is ___
0.898

What value of measured self-cleavage is listed for G81A G82A ?
0.201
